# run.description: soluble on expression in E. coli; label from the status in PepcDB or PDB records

[
  {
    "sequence.entry": "VIDALRNNNDYEPYNKDSNNQAFNSEEITRFFSIGKYTYPSIFSELNFIINAREAFVSIQTSTIPKTAYAAVNFVETQGEDESYTDSLSTDNKRDIYADFAVIEIPLFLTNHRDYQVFNEFIKPAIETYKQLGNSSFEKKQLDQHKNDNFYMLGYPLVESSIDALILNQRRQYNNSYTEKYTPQTLTKDQRTIDLSREVPTLIQNKTENSTGSQLLVNQSLSSTSEGIIE",
    "soluble on expression in E. coli": "not soluble"
  },
  {
    "sequence.entry": "MGSDKIHHHHHHMMTSSEIKRIATYVEKGGVGKTTSAAHIAVAAHNRGHEVLLVDLAGTQNDLATHFGLSIVDEEATDDGVSIDAPISAVFGDDWAFLRDNIDDLLDRMTFPTDEGPDLIPADPGLGGADNNLANVPLEERYQKLDGFVEDLVADKYDLVIFDLPGKEDNIALNGLFAARNVVAPLKPGAFERDQLQKLDATLEEISADLDVDLGLALIIPTIISSQETLSESFVEYVTEEYPEIVGEPVTKTADIGNNQNAGRTLFAVPDDELYATGKRAREAYSANTEQLLSRLTDR",
    "soluble on expression in E. coli": "not soluble"
  }
]
